This section presents compounds with their documented MIC values.
System: Klebsiella pneumoniae
Assay: Antimicrobial activity against Klebsiella pneumoniae ATCC 13883 by serial dilution/CLSI method
Type: functional
QUANTITY_KIND: MIC

INSERT INTO results (chemical_string, quantity_kind, result) VALUES
  ('CC[C@@H](C)[C@@H]1NC(=O)[C@@H](CC(C)C)NC(=O)[C@H](CC(C)C)NC(=O)[C@H](CC(=O)c2ccccc2NC=O)NC(=O)CNC(=O)[C@H](CC(N)=O)NC1=O', 'MIC', '> 128 µg/mL'),
  ('CC(C)C[C@@H]1NC(=O)[C@H](Cc2c[nH]c3ccccc23)NC(=O)CNC(=O)[C@H](CC(N)=O)NC(=O)[C@H](C(C)C)NC(=O)[C@@H](CC(C)C)NC1=O', 'MIC', '> 128 µg/mL'),
  ('CC[C@@H](C)[C@@H]1NC(=O)[C@@H](CC(C)C)NC(=O)[C@H](CC(C)C)NC(=O)[C@H](CC(=O)c2ccccc2N)NC(=O)CNC(=O)[C@H](CC(N)=O)NC1=O', 'MIC', '> 128 µg/mL');
